assay.method.text: Macro-scale scaffold formation upon exposure to PBS / neutral pH buffer
Format: physicochemical
condition.details: upon exposure to PBS (1×) / neutral pH buffer
[ ]: non-standard residue; d: D form. The star is where a group is joined. Biotin = O=C1N[C@H]2[C@H](CS[C@H]2CCCCC(=O)*)N1; NHPr = CCCN*
property: solid scaffold / hydrogel formation

Biotin-GGGAFASTKA-NH2 [B33] ... yielded solid scaffolds
Biot-GGG(Propylamine)FSSTKT-CONH2 (Biotin-GGG[NHPr]FSSTKT-NH2) [peptide B28] ... yielded solid scaffolds
Biotin-GGGAWASTKT-NH2 [B32] ... yielded solid scaffolds
